Target: human CA-IX (Homo sapiens, UniProt Q16790)
Construct: purchased Acro CA9-H82E3
Test: Surface Plasmon Resonance (SPR) binding kinetics to recombinant human CA-IX (Biacore 8K, single-cycle kinetics, 1:1 binding model)
Conditions: Chelated Metal: Lu-175; SPR, 25° C., pH 7.4; read-out: CAIX KD
Protocol: G1. Surface Plasmon Resonance Assay Conditions for hCA-IX and hCA-XII Surface Plasmon Resonance (SPR) experiments were conducted on a Biacore 8K instrument (Cytiva, Marlborough, MA) to determine the binding kinetics of the compound to recombinant human CA-IX (Acro, CA9-H82E3) and CA-XII (Creative BioMart, CA12-261H) proteins. […]
pKd: −log10 of the molar value.
measurement.label: pKd

Exercise: I would be grateful if you could share the reported pKd for CC(CCCC(=O)N1CCC(C(N)=O)(C(=O)NCC(=O)NC2CCN(C(=O)CCOCCOCCOCCOCCN(CCOCCOCCOCCOCCC(=O)N3CCC(NC(=O)CNC(=O)C4(C(N)=O)CCN(C(=O)CCCC(C)(c5ccc(O)cc5)c5ccc(O)cc5)CC4)C(C(=O)NCCn4cc(C56CC(C(=O)Nc7nnc(S(N)(=O)=O)s7)(C5)C6)nn4)C3)C(=O)CNC(=O)CN3CCN(CC(=O)O)CCN(CC(=O)O)CCN(CC(=O)O)CC3)CC2C(=O)NCCn2cc(C34CC(C(=O)Nc5nnc(S(N)(=O)=O)s5)(C3)C4)nn2)CC1)(c1ccc(O)cc1)c1ccc(O)cc1.[Lu+3] (stereo not shown) [Compound 131.7] .
Solution: > 9.00

---

The reader will find reported pKd values listed item by item below.
molecular target: human CA-XII (Homo sapiens, UniProt O43570); construct: purchased Creative BioMart CA12-261H; assay: Surface Plasmon Resonance (SPR) binding kinetics to recombinant human CA-XII (Biacore 8K, single-cycle kinetics, 1:1 binding model); settings: read-out: CAXII KD, Chelated Metal: Lu-175, 25° C., pH 7.4
Sequence (O43570 25-354): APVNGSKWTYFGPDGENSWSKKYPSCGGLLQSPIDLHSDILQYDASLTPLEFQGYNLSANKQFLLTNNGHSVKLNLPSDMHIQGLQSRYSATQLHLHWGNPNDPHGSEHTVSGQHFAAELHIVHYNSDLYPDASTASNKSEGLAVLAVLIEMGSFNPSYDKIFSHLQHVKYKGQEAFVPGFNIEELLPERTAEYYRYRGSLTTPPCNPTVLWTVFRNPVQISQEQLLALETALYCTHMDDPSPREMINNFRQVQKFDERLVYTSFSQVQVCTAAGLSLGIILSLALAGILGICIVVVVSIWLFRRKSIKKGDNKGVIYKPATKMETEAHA
pKd: −log10 of the molar value.

compound	measured.result
CC(CCCC(=O)N1CCC(C(N)=O)(C(=O)NCC(=O)NC2(C(=O)N[C@@H](Cn3cc(C45CC(C(=O)Nc6nnc(S(N)(=O)=O)s6)(C4)C5)nn3)C(=O)O)CCN(C(=O)CN3CCN(CC(=O)O)CCN(CC(=O)O)CCN(CC(=O)O)CC3)CC2)CC1)(c1ccc(O)cc1)c1ccc(O)cc1.[Lu+3] [Compound 134]	< 8.00

Exercise: Looking for the measured pKd of CC(CCC(=O)N[C@@H](CC(=O)N[C@@H](CC(=O)N1CCN(C(=O)CN2CCN(CC(=O)O)CCN(CC(=O)O)CCN(CC(=O)O)CC2)C[C@H]1C(=O)NCC(=O)N1CCC2(CC1)CC(C(=O)Nc1nnc(S(N)(=O)=O)s1)C2)C(=O)O)C(=O)O)(c1ccc(O)cc1)c1ccc(O)cc1.[Lu+3] [Compound 119] , can you help?
Solution: < 8.00

---

biological target: human CA-IX (Homo sapiens, UniProt Q16790); construct: purchased Acro CA9-H82E3; assay: Surface Plasmon Resonance (SPR) binding kinetics to recombinant human CA-IX (Biacore 8K, single-cycle kinetics, 1:1 binding model); settings: Chelated Metal: Lu-175; SPR, 25° C., pH 7.4; read-out: CAIX KD
Below is a list of entries, each paired with its recorded Kd value.

Known Kd results, listed for orientation:
smiles.code	measured.result
CC(CCCC(=O)N1CCC(C(=O)O)(C(=O)NCC(=O)N2CCN(C(=O)CN3CCN(CC(=O)O)CCN(CC(=O)O)CCN(CC(=O)O)CC3)C[C@@H]2C(=O)NCCn2cc(C34CCC(C(=O)Nc5nnc(S(N)(=O)=O)s5)(C3)C4)nn2)CC1)(c1ccc(O)cc1)c1ccc(O)cc1.[Lu+3]	1 to 2.5 nM
CC(CCCC(=O)N1CCC(C(N)=O)(C(=O)NCC(=O)NC2(C(=O)NCCn3cc(COc4ccc5nc(S(N)(=O)=O)sc5c4)nn3)CCN(C(=O)CC[C@H](C(=O)O)N3CCN(CC(=O)O)CCN(CC(=O)O)CCN(CC(=O)O)CC3)CC2)CC1)(c1ccc(O)cc1)c1ccc(O)cc1.[Lu+3]	< 1 nM
NS(=O)(=O)c1nnc(NC(=O)C23CC(c4cn(CCNC(=O)[C@@H]5CN(C(=O)CN6CCN(CC(=O)O)CCN(CC(=O)O)CCN(CC(=O)O)CC6)CCN5C(=O)C[C@H](NC(=O)C[C@H](NC(=O)c5coc(C6CC6)n5)C(=O)O)C(=O)O)nn4)(C2)C3)s1.[Lu+3]	1 to 2.5 nM
NS(=O)(=O)c1nnc(NC(=O)C23CC(c4cn(C[C@H]5CN(C(=O)CN6CCN(CC(=O)O)CCN(CC(=O)O)CCN(CC(=O)O)CC6)CCN5C(=O)[C@@H]5COCCN5C(=O)Cc5n[nH]c6ccccc56)nn4)(C2)C3)s1.[Lu+3]	1 to 2.5 nM
CC(CCC(=O)N[C@@H](CC(=O)N[C@@H](CC(=O)N1CCN(C(=O)CC[C@H](C(=O)O)N2CCN(CC(=O)O)CCN(CC(=O)O)CCN(CC(=O)O)CC2)C[C@H]1C(=O)NCCn1cc(C23CC(C(=O)Nc4nnc(S(N)(=O)=O)s4)(C2)C3)nn1)C(=O)O)C(=O)O)(c1ccc(O)cc1)c1ccc(O)cc1.[Lu+3]	< 1 nM
CC(CCCC(=O)N1CCC(CN)(C(=O)NCC(=O)N2CCN(C(=O)CN3CCN(CC(=O)O)CCN(CC(=O)O)CCN(CC(=O)O)CC3)C[C@@H]2C(=O)NCCn2cc(C34CC(C(=O)Nc5nnc(S(N)(=O)=O)s5)(C3)C4)nn2)CC1)(c1ccc(O)cc1)c1ccc(O)cc1.[Lu+3]	1 to 2.5 nM
NS(=O)(=O)c1nnc(NC(=O)C23CCC(c4cn(CCNC(=O)[C@@H]5CN(C(=O)CN6CCN(CC(=O)O)CCN(CC(=O)O)CCN(CC(=O)O)CC6)CCN5C(=O)CC[C@H](NC(=O)C[C@H](NC(=O)c5ccc(C6CCCCC6)cc5)C(=O)O)C(=O)O)nn4)(CC2)CC3)s1.[Lu+3]	< 1 nM
CC(CCCC(=O)N1CCC(C#N)(C(=O)NCC(=O)N2CCN(C(=O)CN3CCN(CC(=O)O)CCN(CC(=O)O)CCN(CC(=O)O)CC3)C[C@@H]2C(=O)NCCn2cc(C34CC(C(=O)Nc5nnc(S(N)(=O)=O)s5)(C3)C4)nn2)CC1)(c1ccc(O)cc1)c1ccc(O)cc1.[Lu+3]	1 to 2.5 nM
NS(=O)(=O)c1nnc(NC(=O)C23CC(c4cn(CCNC(=O)[C@@H]5CN(C(=O)CN6CCN(CC(=O)O)CCN(CC(=O)O)CCN(CC(=O)O)CC6)CCN5C(=O)C[C@H](Nc5ncc(C(=O)NCc6n[nH]c7ccccc67)cn5)C(=O)O)nn4)(C2)C3)s1.[Lu+3]	2.5 to 10 nM
CC(CCC(=O)N[C@H](CC(=O)N[C@H](CC(=O)N1CCN(C(=O)CN2CCN(CC(=O)O)CCN(CC(=O)O)CCN(CC(=O)O)CC2)C[C@H]1C(=O)NCCn1cc(C23CC(C(=O)Nc4nnc(S(N)(=O)=O)s4)(C2)C3)nn1)C(=O)O)C(=O)O)(c1ccc(O)cc1)c1ccc(O)cc1.[Lu+3]	1 to 2.5 nM

Exercise: # query: Kd of entry CN1CCN(C(=O)CCCC(C)(c2ccc(O)cc2)c2ccc(O)cc2)[C@H](C(=O)N[C@@H](CC(=O)N2CCN(C(=O)CN3CCN(CC(=O)O)CCN(CC(=O)O)CCN(CC(=O)O)CC3)C[C@@H]2C(=O)NCCn2cc(C34CC(C(=O)Nc5nnc(S(N)(=O)=O)s5)(C3)C4)nn2)C(=O)O)C1.[Lu+3]
Solution: < 1 nM

Exercise: Would you kindly share the measured Kd for NS(=O)(=O)c1nnc(NC(=O)C23CCC(c4cn(CCNC(=O)[C@@H]5CN(C(=O)CN6CCN(CC(=O)O)CCN(CC(=O)O)CCN(CC(=O)O)CC6)CCN5C(=O)CC[C@H](NC(=O)C[C@H](NC(=O)CCC5CCCCC5)C(=O)O)C(=O)O)nn4)(CC2)CC3)s1.[Lu+3] ?
Solution: < 1 nM

Exercise: Look up Kd: CC(CCC(=O)N[C@@H](CC(=O)N[C@@H](CC(=O)N1CCN(C(=O)CN2CCN(CC(=O)O)CCN(CC(=O)O)CCN(CC(=O)O)CC2)C[C@H]1C(=O)NCCn1cc(COc2ccc3nc(S(N)(=O)=O)sc3c2)nn1)C(=O)O)C(=O)O)(c1ccc(O)cc1)c1ccc(O)cc1.[Lu+3]
Solution: < 1 nM

Exercise: Field request: Kd | item: NS(=O)(=O)c1nnc(NC(=O)C23CC(c4cn(CCNC(=O)[C@H]5CN(C(=O)CN6CCN(CC(=O)O)CCN(CC(=O)O)CCN(CC(=O)O)CC6)CCN5C(=O)[C@@H]5COCCN5C(=O)CCc5n[nH]c6ccccc56)nn4)(C2)C3)s1.[Lu+3]
Solution: 2.5 to 10 nM
